Values were extracted from patent EP4289863A9.

- tested_target: T1, His-tagged human IL-1 Rrp2/IL-1R6 protein (human, UniProt Q9HB29 20-335, limits assumed)
- T1 construct: Bought protein; also called His-tagged human IL-1 Rrp2/IL-IR6 protein; not shown: His tag
- T1 sequence (looked up): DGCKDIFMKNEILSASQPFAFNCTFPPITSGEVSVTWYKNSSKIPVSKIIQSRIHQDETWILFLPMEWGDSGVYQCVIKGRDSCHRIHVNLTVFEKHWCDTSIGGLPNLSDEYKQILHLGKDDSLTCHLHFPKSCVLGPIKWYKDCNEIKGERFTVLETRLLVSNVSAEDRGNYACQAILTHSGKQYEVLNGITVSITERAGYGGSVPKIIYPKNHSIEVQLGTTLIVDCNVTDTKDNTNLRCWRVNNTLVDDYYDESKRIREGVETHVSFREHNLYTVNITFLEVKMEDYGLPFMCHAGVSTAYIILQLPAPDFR
- protocol_notes: SPR Biacore 8K, His-tagged antigen captured by anti-His antibody, antibody as analyte, 1:1 model
measurement_label: Kd (nM)
Expressed in nM, but write only the number.

INSERT INTO measurements (binder, quantitative_result) VALUES
  ('humanized anti-IL-36R antibody 900527 (antibody, V domains shown, IgG1 (vector with L234A, L235A) and human kappa) VH: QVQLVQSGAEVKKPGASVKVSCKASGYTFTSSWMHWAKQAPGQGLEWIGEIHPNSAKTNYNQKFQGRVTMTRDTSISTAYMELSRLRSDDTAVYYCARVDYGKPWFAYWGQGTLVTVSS VL: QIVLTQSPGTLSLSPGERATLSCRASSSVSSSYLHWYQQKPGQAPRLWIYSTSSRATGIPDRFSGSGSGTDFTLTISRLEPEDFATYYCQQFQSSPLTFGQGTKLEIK', 0.0452),
  ('anti-IL-36R chimeric antibody 900497 (antibody, V domains shown, Human-mouse chimera: human IgG1 heavy constant region with L234A and L235A (Eu numbering), human kappa light constant region) VH: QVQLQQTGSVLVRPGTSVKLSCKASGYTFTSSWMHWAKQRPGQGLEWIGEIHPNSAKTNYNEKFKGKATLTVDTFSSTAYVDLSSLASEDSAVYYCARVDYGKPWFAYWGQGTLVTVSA VL: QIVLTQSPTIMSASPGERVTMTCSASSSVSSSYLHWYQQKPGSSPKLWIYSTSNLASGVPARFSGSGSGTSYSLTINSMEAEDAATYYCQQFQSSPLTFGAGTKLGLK', 0.0254),
  ('humanized anti-IL-36R antibody 900513 (antibody, V domains shown, IgG1 (vector with L234A, L235A) and human kappa) VH: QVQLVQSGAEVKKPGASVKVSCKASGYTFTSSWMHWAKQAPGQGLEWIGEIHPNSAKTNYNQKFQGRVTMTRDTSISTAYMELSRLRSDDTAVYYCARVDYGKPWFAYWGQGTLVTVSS VL: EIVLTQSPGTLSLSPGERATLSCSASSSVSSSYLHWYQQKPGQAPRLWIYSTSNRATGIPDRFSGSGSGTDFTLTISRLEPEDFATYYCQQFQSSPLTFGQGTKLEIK', 0.0148);

The record that follows has no Kd shown yet.
In: // query Kd value for entry humanized anti-IL-36R antibody 900534 (antibody, V domains shown, IgG1 (vector with L234A, L235A) and human kappa) VH: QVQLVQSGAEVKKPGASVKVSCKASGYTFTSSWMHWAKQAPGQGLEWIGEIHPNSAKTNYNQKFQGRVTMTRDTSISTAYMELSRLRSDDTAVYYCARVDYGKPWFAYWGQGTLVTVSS VL: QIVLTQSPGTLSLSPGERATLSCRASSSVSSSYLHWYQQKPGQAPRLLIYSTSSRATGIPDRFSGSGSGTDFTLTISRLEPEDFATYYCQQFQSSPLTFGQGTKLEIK
Out: 0.0579
